Entries below carry reported pIC50 on UniProtKB P24557.
Sequence (P24557 whole entry): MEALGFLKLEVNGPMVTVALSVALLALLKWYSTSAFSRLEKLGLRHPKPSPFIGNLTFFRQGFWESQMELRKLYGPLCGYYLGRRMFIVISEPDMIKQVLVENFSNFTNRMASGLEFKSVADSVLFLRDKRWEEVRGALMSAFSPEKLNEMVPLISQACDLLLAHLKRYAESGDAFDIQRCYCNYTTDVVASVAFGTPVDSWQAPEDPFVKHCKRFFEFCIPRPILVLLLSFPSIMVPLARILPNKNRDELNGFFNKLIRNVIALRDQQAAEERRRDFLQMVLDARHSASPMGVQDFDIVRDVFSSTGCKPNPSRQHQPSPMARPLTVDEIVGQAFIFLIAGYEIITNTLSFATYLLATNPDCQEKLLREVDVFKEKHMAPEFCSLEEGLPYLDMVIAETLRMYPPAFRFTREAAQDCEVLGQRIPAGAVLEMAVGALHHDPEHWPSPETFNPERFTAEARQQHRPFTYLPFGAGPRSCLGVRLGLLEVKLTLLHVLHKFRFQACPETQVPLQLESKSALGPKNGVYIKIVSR
When answering, recall that pIC50 equals minus log10 of the concentration in mol/L, and write that number alone.

Consider the following illustrative entries.
Please look at this compound and report its pIC50: O=C(O)CCc1cc(CCNS(=O)(=O)c2ccc(Cl)cc2)cc(Cn2ccnc2)c1
7.42

Please look at this compound and report its pIC50: O=C(O)CCc1cc(CCNS(=O)(=O)c2ccccc2)cc(Cn2ccnc2)c1
7.74

Please look at this compound and report its pIC50: O=C(O)CCc1cc(CCNS(=O)(=O)c2ccccc2)cc(Cc2cccnc2)c1
7.35

Please look at this compound and report its pIC50: O=C(O)CCc1cc(CCNC(=O)c2ccccc2)cc(Cc2cccnc2)c1
7.66

---
Please look at this compound and report its pIC50: O=C(O)CCc1cc(CCNS(=O)(=O)N2CCCC2)cc(Cc2cccnc2)c1
7.66

Please look at this compound and report its pIC50: O=C(O)CCc1cc(CCNS(=O)(=O)Nc2ccc(Cl)cc2)cc(Cc2cccnc2)c1
7.42

Please look at this compound and report its pIC50: O=C(O)CCc1cc(CCNS(=O)(=O)c2ccc(F)cc2)cc(Cc2cccnc2)c1
7.70

Please look at this compound and report its pIC50: CN(CCc1cc(CCC(=O)O)cc(Cc2cccnc2)c1)S(=O)(=O)c1ccc(Cl)cc1
7.27

Please look at this compound and report its pIC50: Cc1ccc(S(=O)(=O)NCCc2cc(CCC(=O)O)cc(Cc3cccnc3)c2)cc1
7.43

* * *

molecular target: UniProt P34978; experiment: Antagonist activity against TXA2 receptor measured by inhibition of U-46,619-induced contractions of rat aorta; assay type: functional, tissue-based
Quick rule for you: pA2 at 8 or higher means 1.0, lower means 0.0.

Reported pA2 at or above 8? Cc1c(Cn2ccnc2)c2cc(CCC(=O)O)ccc2n1CCNS(=O)(=O)c1ccc(F)cc1
1.0

Reported pA2 at or above 8? O=C(O)CCc1cc(CCNS(=O)(=O)c2ccc(Cl)cc2)cc(Cn2ccnc2)c1
1.0

Reported pA2 at or above 8? O=C(O)CCc1cc(CCNS(=O)(=O)c2ccc(Cl)cc2)cc(Cc2cccnc2)c1
1.0

Reported pA2 at or above 8? O=C(O)CCn1cc(Cc2cccnc2)c2cc(NS(=O)(=O)c3ccc(F)cc3)ccc21
1.0

---
Reported pA2 at or above 8? CN(C)S(=O)(=O)NCCc1cc(CCC(=O)O)cc(Cc2cccnc2)c1
0.0

Reported pA2 at or above 8? C=C(c1cccnc1)c1cc(CCNS(=O)(=O)c2ccc(Cl)cc2)cc(CCC(=O)O)c1
1.0

Reported pA2 at or above 8? CN(CCc1cc(CCC(=O)O)cc(Cc2cccnc2)c1)S(=O)(=O)c1ccc(Cl)cc1
0.0

Reported pA2 at or above 8? O=C(O)CCc1cc(CCNS(=O)(=O)c2ccc(Cl)cc2)cc(Oc2cccnc2)c1
1.0

Reported pA2 at or above 8? O=C(O)CCc1cc(CCNS(=O)(=O)c2ccc(F)cc2)cc(Cc2cccnc2)c1
1.0

* * *

target: Thromboxane A2 receptor (Rattus norvegicus) (UniProt P34978); assay: Antagonist activity against TXA2 receptor measured by inhibition of U-46,619-induced contractions of rat aorta; type: functional, tissue-based
Sequence (P34978 whole entry): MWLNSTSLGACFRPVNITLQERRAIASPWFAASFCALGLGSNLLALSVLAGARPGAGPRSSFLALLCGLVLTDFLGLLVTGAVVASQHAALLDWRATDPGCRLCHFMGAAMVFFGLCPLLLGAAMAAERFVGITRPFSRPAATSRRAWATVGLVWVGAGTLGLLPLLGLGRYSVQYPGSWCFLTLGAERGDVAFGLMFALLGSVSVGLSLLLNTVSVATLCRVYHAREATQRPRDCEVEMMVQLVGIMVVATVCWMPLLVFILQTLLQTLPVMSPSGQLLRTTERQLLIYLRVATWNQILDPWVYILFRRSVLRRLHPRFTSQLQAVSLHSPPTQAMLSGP
Quick rule for you: pA2 at 8 or higher means true (1), lower means false (0).

Reported pA2 at or above 8? O=C(O)CCc1cccc(CCNS(=O)(=O)c2ccc(Cl)cc2)c1
true (1)

Now let's try a different one.
Reported pA2 at or above 8? O=C(O)COc1ccc(CCNS(=O)(=O)c2ccccc2)cc1
false (0)

* * *

molecular target: Thromboxane A2 receptor (Rattus norvegicus); experiment: Antagonist activity against TXA2 receptor measured by inhibition of U-46,619-induced contractions of rat aorta; type: functional, tissue-based
Quick rule for you: pA2 at 8 or higher means 1, lower means -1.

Illustrative cases are given below, each with its answer.
Reported pA2 at or above 8? O=C(O)CCc1cc(CCNS(=O)(=O)c2ccccc2)cc(Oc2cccnc2)c1
1

Reported pA2 at or above 8? Cc1c(Cc2cccnc2)c2cc(CCC(=O)O)ccc2n1CCNS(=O)(=O)c1ccc(F)cc1
1

Reported pA2 at or above 8? O=C(O)CCc1cc(CCNS(=O)(=O)c2ccc(Br)cc2)cc(Cc2cccnc2)c1
1

---
Reported pA2 at or above 8? O=C(O)CCc1cc(CCNS(=O)(=O)c2ccccc2)cc(Cc2cccnc2)c1
1

Reported pA2 at or above 8? O=C(O)CCc1cc(CCNS(=O)(=O)Nc2ccc(Cl)cc2)cc(Cc2cccnc2)c1
1

Reported pA2 at or above 8? CCCS(=O)(=O)NCCc1cc(CCC(=O)O)cc(Cc2cccnc2)c1
-1

Reported pA2 at or above 8? O=C(O)CCc1cc(CCS(=O)(=O)c2ccccc2)cc(Cc2cccnc2)c1
-1

Reported pA2 at or above 8? CC(O)(c1cccnc1)c1cc(CCNS(=O)(=O)c2ccc(Cl)cc2)cc(CCC(=O)O)c1 (stereo unspecified)
1

Reported pA2 at or above 8? Cc1ccc(S(=O)(=O)NCCc2cc(CCC(=O)O)cc(Cc3cccnc3)c2)cc1
1

* * *

target: UniProt P34978; assay: Antagonist activity against TXA2 receptor measured by inhibition of U-46,619-induced contractions of rat aorta; format: functional, tissue-based
Entries and their pA2
Respond numerically, and do not add a unit to the figure.

Consider the following illustrative entries.
Please look at this compound and report its pA2: O=C(O)CCn1cc(Cn2ccnc2)c2cc(NS(=O)(=O)c3ccc(F)cc3)ccc21
8.2

Please look at this compound and report its pA2: O=C(O)CCc1cc(CCNC(=O)c2ccccc2)cc(Cc2cccnc2)c1
7.96

Please look at this compound and report its pA2: O=C(O)CCc1cc(CCNS(=O)(=O)C2CCCCC2)cc(Cc2cccnc2)c1
7.81

Please look at this compound and report its pA2: O=C(O)CCc1cc(CCCS(=O)(=O)c2ccccc2)cc(Cc2cccnc2)c1
7.8

Please look at this compound and report its pA2: O=C(O)CCc1cc(CCNS(=O)(=O)N2CCCCC2)cc(Cc2cccnc2)c1
7.81

---
Please look at this compound and report its pA2: CC(C)(C)CS(=O)(=O)NCCc1cc(CCC(=O)O)cc(Cc2cccnc2)c1
8.1

Please look at this compound and report its pA2: O=C(O)CCc1cc(CCNS(=O)(=O)c2ccccc2)cc(Cn2ccnc2)c1
7.89

These measurements were taken from ChEMBL document CHEMBL1130190.
